Hi there, I'd appreciate the recorded IC50 for every entry that follows.
# Target Desc: Kras and SOS1 (biotin-tagged human Kras loaded with GDP, His-tagged human SOS1) (Homo sapiens, UniProt P01116, G12D)
# Construct: made in house; host or cells: E. coli (stated for Kras only)
# Sequence (P01116 1-188 isoform P01116-2 G12D): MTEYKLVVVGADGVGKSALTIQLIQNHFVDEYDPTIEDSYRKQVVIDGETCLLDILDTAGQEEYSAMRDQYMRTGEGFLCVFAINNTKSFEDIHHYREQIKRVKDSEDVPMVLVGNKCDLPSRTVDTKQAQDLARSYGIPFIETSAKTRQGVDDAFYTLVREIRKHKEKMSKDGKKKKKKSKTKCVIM
# Assay Method Text: Protein-protein interaction inhibition between Kras and SOS1 (KrasGl2D-SOS PPI) using AlphaScreen
# Type: binding
# Measurement Setup: AlphaScreen; biotin-tagged human Kras loaded with GDP, His-tagged human SOS1; read-out: KRAS G12D-SOS PPI IC50
Positions of bridges follow the written chain, without caps; N, C: chain ends. Non-standard residues stand in square brackets, D forms with d. Residues, ends and D or L forms follow the SMILES beside them. *: point of attachment. hPhe(3-Cl-4-CF3) = N[C@@H](CCc1ccc(C(F)(F)F)c(Cl)c1)C(=O)O; hPhe(3-F,4-CF3) = N[C@@H](CCc1ccc(C(F)(F)F)c(F)c1)C(=O)O; 3Oxa8azabicyclo(3.2.1)octane = C1CC2COCC1N2*; NMePhe(4-Me) = CN[C@@H](Cc1ccc(C)cc1)C(=O)O; NMeNle(6-CHF2) = CN[C@@H](CCCCC(F)F)C(=O)O; NMeChg = CN[C@H](C(=O)O)C1CCCCC1; NMeD = CN[C@@H](CC(=O)O)C(=O)O; NMeL = CN[C@@H](CC(C)C)C(=O)O; Chg = N[C@H](C(=O)O)C1CCCCC1; Pyrrolidide = C1CCN(*)C1; Ac5c = NC1(C(=O)O)CCCC1; Aib = CC(C)(N)C(=O)O; Sar = CNCC(=O)O
Provide only the numeric value, understood in nM.

Look at this molecule and give its reported IC50. CC[C@H](C)[C@@H]1NC(=O)[C@H](CC(C)C)N(C)C(=O)C[C@@H](C(=O)N2C3CCC2COC3)N(C)C(=O)[C@H](C2CCCCC2)N(C)C(=O)C2(CCCC2)NC(=O)[C@@H]2CCCN2C(=O)[C@H](CCc2ccc(C(F)(F)F)c(Cl)c2)NC(=O)CN(C)C(=O)[C@H](Cc2ccc(C)cc2)N(C)C(=O)CN(C)C(=O)CN(C)C1=O [Compound 1869] ([NMeL]I[Sar][Sar][NMePhe(4-Me)][Sar][hPhe(3-Cl-4-CF3)]P[Ac5c][NMeChg][NMeD]-{3Oxa8azabicyclo(3.2.1)octane}; lactam N-11)
0.76

Using the record for CC(C)C[C@H]1C(=O)N[C@@H](C2CCCCC2)C(=O)N(C)CC(=O)N(C)CC(=O)N(C)[C@@H](CCCCC(F)F)C(=O)N(C)CC(=O)N[C@@H](CCc2ccc(C(F)(F)F)c(F)c2)C(=O)N(C)[C@@H](CC(C)C)C(=O)NC(C)(C)C(=O)N(C)[C@@H](CC(C)C)C(=O)N[C@H](C(=O)N2CCCC2)CC(=O)N1C [Compound 1453] ([NMeL][Chg][Sar][Sar][NMeNle(6-CHF2)][Sar][hPhe(3-F,4-CF3)][NMeL][Aib][NMeL]D-Pyrrolidide; lactam N-11) , report its IC50.
110

---

# Target Desc: Kras and SOS1 (biotin-tagged human Kras loaded with GDP, His-tagged human SOS1) (Homo sapiens, UniProt P01116, G12D)
# Construct: made in house; host or cells: E. coli (stated for Kras only)
# Assay Method Text: Protein-protein interaction inhibition between Kras and SOS1 (KrasGl2D-SOS PPI) using AlphaScreen
# Assay type: binding
# Measurement Setup: AlphaScreen; biotin-tagged human Kras loaded with GDP, His-tagged human SOS1; read-out: KRAS G12D-SOS PPI IC50
Positions of bridges follow the written chain, without caps; N, C: chain ends. Non-standard residues stand in square brackets, D forms with d. Residues, ends and D or L forms follow the SMILES beside them. *: point of attachment. hPhe(3-Cl-4-CF3) = N[C@@H](CCc1ccc(C(F)(F)F)c(Cl)c1)C(=O)O; hPhe(4-CF3) = N[C@@H](CCc1ccc(C(F)(F)F)cc1)C(=O)O; NMePhe(3-CN) = CN[C@@H](Cc1cccc(C#N)c1)C(=O)O; NMePhe(4-Cl) = CN[C@@H](Cc1ccc(Cl)cc1)C(=O)O; NMePhe(4-Me) = CN[C@@H](Cc1ccc(C)cc1)C(=O)O; Oic = O=C(O)[C@@H]1C[C@@H]2CCCC[C@@H]2N1; NMeGly(cPent) = CN[C@H](C(=O)O)C1CCCC1; NMeCha = CN[C@@H](CC1CCCCC1)C(=O)O; NMeChg = CN[C@H](C(=O)O)C1CCCCC1; NMeD = CN[C@@H](CC(=O)O)C(=O)O; CH2CONHtBu = CC(C)(C)NC(=O)C*; NMeL = CN[C@@H](CC(C)C)C(=O)O; NMeV = CN[C@H](C(=O)O)C(C)C; d(β3hA) = C[C@@H](N)CC(=O)O; Azetidin(1-yl) = C1CN(*)C1; NMeS = CN[C@@H](CO)C(=O)O; NMeA = CN[C@@H](C)C(=O)O; Piperidide = C1CCN(*)CC1; Ac5c = NC1(C(=O)O)CCCC1; Aze = O=C(O)[C@@H]1CCN1; Aib = CC(C)(N)C(=O)O; Isopentyl = CC(C)CC*; Sar = CNCC(=O)O
Please respond with reported pIC50 for every item in the list.
Notebook: values listed as pIC50 are -log10 of the concentration (mol/L).

Report pIC50 for CC[C@H](C)[C@@H]1NC(=O)[C@H](CC(C)C)N(C)C(=O)C[C@@H](C)NC(=O)[C@H](C2CCCC2)N(C)C(=O)C2(CCCC2)NC(=O)[C@H](C)N(C)C(=O)[C@H](CCc2ccc(C(F)(F)F)c(Cl)c2)NC(=O)CN(C)C(=O)[C@H](Cc2ccc(C)cc2)N(C)C(=O)[C@@H]2CCN2C(=O)[C@H](C)N(C)C1=O [Compound 1153] (cyclo([Ac5c][NMeGly(cPent)][d(β3hA)][NMeL]I[NMeA][Aze][NMePhe(4-Me)][Sar][hPhe(3-Cl-4-CF3)][NMeA])) please.
8.60

What does the record list as pIC50 for CC[C@H](C)[C@@H]1NC(=O)[C@H](CC(C)C)N(C)C(=O)C[C@@H](C(=O)N2CCC2)N(C)C(=O)[C@H](C2CCCCC2)N(C)C(=O)C2(CCCC2)NC(=O)[C@@H]2CCCN2C(=O)[C@H](CCc2ccc(C(F)(F)F)c(Cl)c2)NC(=O)CN(C)C(=O)[C@H](CC2CCCCC2)N(C)C(=O)CN(C)C(=O)CN(C)C1=O [Compound 437] ([NMeL]I[Sar][Sar][NMeCha][Sar][hPhe(3-Cl-4-CF3)]P[Ac5c][NMeChg][NMeD]-{Azetidin(1-yl)}; lactam N-11) ?
9.33

# get_value(readout='pIC50', item= CC[C@H](C)[C@@H]1NC(=O)[C@H](CC(C)C)N(C)C(=O)C[C@@H](C)NC(=O)[C@H](CC(C)C)N(C)C(=O)C(C)(C)NC(=O)[C@@H]2C[C@@H]3CCCC[C@@H]3N2C(=O)[C@H](CCc2ccc(C(F)(F)F)cc2)NC(=O)CN(C)C(=O)[C@H](Cc2ccc(Cl)cc2)N(C)C(=O)CN(C)C(=O)CN(C)C1=O [Compound 922] (cyclo([Aib][NMeL][d(β3hA)][NMeL]I[Sar][Sar][NMePhe(4-Cl)][Sar][hPhe(4-CF3)][Oic])) )
6.64

Which pIC50 value is on record for CC[C@H](C)[C@@H]1NC(=O)[C@H](CC(C)C)N(C)C(=O)C[C@@H](C(=O)N2CCCCC2)N(C)C(=O)[C@H](C(C)C)N(C)C(=O)C2(CCCC2)NC(=O)[C@@H]2CCCN2C(=O)[C@H](CCc2ccc(C(F)(F)F)c(Cl)c2)NC(=O)CN(C)C(=O)[C@H](Cc2cccc(C#N)c2)N(C)C(=O)CN(C)C(=O)CN(C)C1=O [Compound 710] ([NMeL]I[Sar][Sar][NMePhe(3-CN)][Sar][hPhe(3-Cl-4-CF3)]P[Ac5c][NMeV][NMeD]-Piperidide; lactam N-11) ?
8.36

Give its pIC50 value. Item: CC[C@H](C)[C@@H]1NC(=O)[C@H](CC(C)C)N(C)C(=O)C[C@@H](C)NC(=O)[C@H](CC(C)C)N(C)C(=O)C(C)(C)NC(=O)[C@H](COCC(=O)NC(C)(C)C)N(C)C(=O)[C@H](CCc2ccc(C(F)(F)F)c(Cl)c2)NC(=O)CN(C)C(=O)[C@H](COCCC(C)C)N(C)C(=O)CN(C)C(=O)CN(C)C1=O [Compound 1467] (cyclo([Aib][NMeL][d(β3hA)][NMeL]I[Sar][Sar][NMeS](Isopentyl)[Sar][hPhe(3-Cl-4-CF3)][NMeS](CH2CONHtBu)))
6.92
